Molecular target: human pancreas Glucokinase (GK) (Homo sapiens, UniProt P35557)
Construct: His6; made in house; host or cells: Escherichia coli
Sequence (P35557 whole entry): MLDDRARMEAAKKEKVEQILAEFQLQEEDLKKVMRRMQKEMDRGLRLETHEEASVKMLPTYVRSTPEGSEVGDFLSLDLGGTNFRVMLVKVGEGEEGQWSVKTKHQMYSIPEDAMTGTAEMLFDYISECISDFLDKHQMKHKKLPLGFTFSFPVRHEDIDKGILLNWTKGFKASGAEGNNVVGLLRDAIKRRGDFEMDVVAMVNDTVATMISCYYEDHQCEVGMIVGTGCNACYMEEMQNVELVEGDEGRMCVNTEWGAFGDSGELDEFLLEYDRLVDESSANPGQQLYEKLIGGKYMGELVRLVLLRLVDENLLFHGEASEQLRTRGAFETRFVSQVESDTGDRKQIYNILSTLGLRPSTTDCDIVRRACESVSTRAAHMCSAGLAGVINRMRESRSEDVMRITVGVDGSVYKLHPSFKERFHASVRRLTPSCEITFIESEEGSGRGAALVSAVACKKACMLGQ
Assay: Glucokinase enzyme assay, pancreas GK
Assay type: biochemical
Conditions: concentration that produces 100% activation above vehicle control
Source text: An enzymatic Glucokinase (GK) assay using purified recombinant human liver/pancreas enzyme was used to evaluate the effects of potential small molecule modulators. In this assay, GK catalyzes glucose phosphorylation in the presence of ATP. The product of this reaction, glucose-6-phosphate, was then oxidized by an excess of glucose-6-phosphate dehydrogenase to produce gluconate-6-phosphate with concomitant reduction of nicotinamide adenine dinucleotide (NAD). […]
observed_property: EC100% (µM)

Reference set (5 entries):
Record COC(=O)c1ccc(NC(=O)CCC2c3ccccc3C(=O)N2Cc2ccc(OC)cc2)nc1 (centres unmarked) , field EC100%: 1.7

Documented EC100% of Cc1ccc(NC(=O)CCC2c3c(F)cccc3C(=O)N2Cc2ccc(F)cc2)nc1 (centres unmarked) : 0.48

Note to self: EC100% recorded for O=C(CCC1c2c(F)cccc2C(=O)N1Cc1ccc(F)cc1)Nc1ccc(Br)cn1 (centres unmarked) was 0.39

The measured EC100% associated with O=C(CCC1c2cccc(F)c2C(=O)N1Cc1ccc(F)cc1)Nc1ccc(C(=O)O)cn1 (centres unmarked) reads 3.4

Given item O=C(CCC1c2cccc(Cl)c2C(=O)N1Cc1ccc(F)cc1)Nc1ccccn1 (centres unmarked) , the value recorded as its EC100% is 0.75

(A) O=C(CCC1c2c(F)cccc2C(=O)N1Cc1ccc(F)cc1)Nc1ccc2ccccc2n1 (centres unmarked)
(B) O=C(O)Cc1csc(NC(=O)CCC2c3c(F)ccc(F)c3C(=O)N2Cc2ccc(F)cc2)n1 (centres unmarked)
Which has the smaller recorded EC100%, A or B ? Field: selected label. Fill in the label of the entry you choose.
A
(A: 6.3 µM, B: 188 µM)

(a) O=C(CCC1c2c(F)cccc2C(=O)N1Cc1ccc(F)cc1)Nc1ccc(Cl)nn1 (centres unmarked)
(b) O=C(CCC1c2c(F)cccc2C(=O)N1Cc1ccc(F)cc1)Nc1cnccn1 (centres unmarked)
(c) CC(=O)c1ccc(NC(=O)CCC2c3c(F)cccc3C(=O)N2Cc2ccc(F)cc2)nc1 (centres unmarked)
(d) COC(=O)c1ccc(NC(=O)CCC2c3c(F)cccc3C(=O)N2Cc2ccc(F)cc2)nc1 (centres unmarked)
(e) N#Cc1ccc(NC(=O)CCC2c3c(F)cccc3C(=O)N2Cc2ccc(F)cc2)nc1 (centres unmarked)
Rank entries according to their EC100%, from the largest number down. A complete answer lists every label in the requested sequence.
e, a, b, d, c
(e: 15 µM, a: 5.2 µM, b: 0.88 µM, d: 0.46 µM, c: 0.225 µM)

(I) O=C(CCC1c2c(F)ccc(F)c2C(=O)N1Cc1ccc(F)cc1)Nc1ccc(C(=O)O)cn1 (centres unmarked)
(II) COc1ccc(CN2C(=O)c3ccccc3C2CCC(=O)Nc2ccc(C(=O)O)cn2)cc1 (centres unmarked)
Which record would sort first by descending EC100%, I or II ? Bench note: the answer is the label of the chosen record.
II
(II: 11 µM, I: 0.65 µM)
